src = the supplement of paper PMC10567573

B1: APBB1IP (parent)
chain: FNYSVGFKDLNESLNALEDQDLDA

- Variants of: B1
- procedure details: protein stability index of a GFP-peptide fusion (GPS, HEK-293T) (PSI 1-6); higher = more stable;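 also: lentivirally expressed fusions sorted by FACS into six bins by GFP to DsRed ratio, PSI derived from sequencing read proportions per bin multiplied by bin number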
- experimental conditions: c terminus: a fixed tail appended
metric name: protein stability index
The response must contain the number and no unit.

Examples with answers:
sequence variant	protein stability index
D9A	3.99
L10H	4.58
L22A	5.06
Q20L	3.88
D9M	3.86
D19E	4.53
K8M	3.73
D21A	3.69

Report measured protein stability index; entry is `Q20T`
4.84

Return value of protein stability index for input `F7I` , no commentary.
4.21

Could you please provide reported protein stability index for `Y3F` ? Thanks!
3.71

Output measured protein stability index for this item: `F7S`
5.41

Give the reported value of protein stability index for this record: `Q20S`
3.97

Annotate the variant `A16R` with its measured protein stability index.
4.14

Return protein stability index for the following variant: `V5G`
4.19

Give protein stability index for the following variant: `D23C`
3.33

Identify protein stability index associated with the variant `L22H`
4.96

Report measured protein stability index; entry is `E18G`
3.96

Determine from records and report protein stability index for `L14T`
4.98

Identify measured protein stability index associated with `N15D`
4.77

Identify measured protein stability index corresponding to `A24C`
4.24

Provide one value: measured protein stability index of `L10K`
4.88
